Origin of the recorded values: patent US20210388087A1

ASSAYED SYSTEM: T1, Human CD3eg linker (human)
T1 construct: Single chain: epsilon and gamma subunits of human CD3 joined by a 29-mer linker, Flag-tag at the C-terminus; also called recombinant human CD3
T1 chain: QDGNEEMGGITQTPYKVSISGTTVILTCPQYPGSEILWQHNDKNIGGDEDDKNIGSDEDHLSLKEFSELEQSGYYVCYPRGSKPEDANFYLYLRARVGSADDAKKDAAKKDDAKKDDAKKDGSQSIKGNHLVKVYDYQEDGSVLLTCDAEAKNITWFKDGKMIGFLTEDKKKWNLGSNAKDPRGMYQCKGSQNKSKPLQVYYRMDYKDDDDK
ASSAY TEXT: Biacore SPR, vs template H183/L072

BINDER	fold change of affinity
H183/L072 VH Q50H (antibody, name in Kabat numbering, V domains shown) VH: QVQLVESGGGLVQPGRSLRLSCAASGFTFSNAWMHWVRQAPGKGLEWVAHIKDKGNAYAAYYAPSVKGRFTISRDDSKNSIYLQMNSLKTEDTAVYYCHYVHYASASTVLPAFGVDAWGQGTTVTVSS VL: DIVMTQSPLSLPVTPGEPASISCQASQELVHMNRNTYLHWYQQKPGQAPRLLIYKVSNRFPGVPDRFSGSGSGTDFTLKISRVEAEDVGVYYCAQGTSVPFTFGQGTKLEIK	0.3 fold
H183/L072 VH K52bS (antibody, name in Kabat numbering, V domains shown) VH: QVQLVESGGGLVQPGRSLRLSCAASGFTFSNAWMHWVRQAPGKGLEWVAQIKDSGNAYAAYYAPSVKGRFTISRDDSKNSIYLQMNSLKTEDTAVYYCHYVHYASASTVLPAFGVDAWGQGTTVTVSS VL: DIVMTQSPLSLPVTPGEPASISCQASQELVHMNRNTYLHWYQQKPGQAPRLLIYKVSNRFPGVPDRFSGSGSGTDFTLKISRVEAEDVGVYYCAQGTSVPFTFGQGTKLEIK	0.7 fold
H183/L072 VH G26Q (antibody, name in Kabat numbering, V domains shown) VH: QVQLVESGGGLVQPGRSLRLSCAASQFTFSNAWMHWVRQAPGKGLEWVAQIKDKGNAYAAYYAPSVKGRFTISRDDSKNSIYLQMNSLKTEDTAVYYCHYVHYASASTVLPAFGVDAWGQGTTVTVSS VL: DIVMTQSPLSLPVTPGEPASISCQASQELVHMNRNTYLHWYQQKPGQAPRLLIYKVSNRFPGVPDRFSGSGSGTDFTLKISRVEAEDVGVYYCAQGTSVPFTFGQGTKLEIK	0.4 fold
H183/L072 VH F27A (antibody, name in Kabat numbering, V domains shown) VH: QVQLVESGGGLVQPGRSLRLSCAASGATFSNAWMHWVRQAPGKGLEWVAQIKDKGNAYAAYYAPSVKGRFTISRDDSKNSIYLQMNSLKTEDTAVYYCHYVHYASASTVLPAFGVDAWGQGTTVTVSS VL: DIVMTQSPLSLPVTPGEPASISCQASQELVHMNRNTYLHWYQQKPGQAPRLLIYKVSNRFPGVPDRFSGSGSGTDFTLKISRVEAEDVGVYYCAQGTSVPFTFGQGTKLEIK	0.2 fold
H183/L072 VH A102M (antibody, name in Kabat numbering, V domains shown) VH: QVQLVESGGGLVQPGRSLRLSCAASGFTFSNAWMHWVRQAPGKGLEWVAQIKDKGNAYAAYYAPSVKGRFTISRDDSKNSIYLQMNSLKTEDTAVYYCHYVHYASASTVLPAFGVDMWGQGTTVTVSS VL: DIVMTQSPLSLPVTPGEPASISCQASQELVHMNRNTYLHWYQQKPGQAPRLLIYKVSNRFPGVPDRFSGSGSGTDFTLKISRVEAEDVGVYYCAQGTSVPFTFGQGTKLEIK	1 fold
